Data provenance is ChEMBL document CHEMBL4813951.

# TESTED_TARGET: Histamine H1 receptor (Homo sapiens, UniProt P35367)
# Sequence (P35367 whole entry): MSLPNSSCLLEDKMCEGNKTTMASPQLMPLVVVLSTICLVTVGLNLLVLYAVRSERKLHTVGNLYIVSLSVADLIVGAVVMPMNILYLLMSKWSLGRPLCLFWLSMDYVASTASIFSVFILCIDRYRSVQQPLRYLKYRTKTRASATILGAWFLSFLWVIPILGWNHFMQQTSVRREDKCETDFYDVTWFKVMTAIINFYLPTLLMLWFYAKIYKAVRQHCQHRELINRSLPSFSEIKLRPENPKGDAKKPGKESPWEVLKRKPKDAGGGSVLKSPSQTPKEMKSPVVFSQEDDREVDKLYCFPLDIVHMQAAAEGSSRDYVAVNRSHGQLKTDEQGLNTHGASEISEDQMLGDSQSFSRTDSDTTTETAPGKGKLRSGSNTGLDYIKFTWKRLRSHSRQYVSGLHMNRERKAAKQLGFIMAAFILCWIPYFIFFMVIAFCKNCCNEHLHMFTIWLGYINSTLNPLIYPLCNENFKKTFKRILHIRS
READOUT_NAME: Ki (µM)

compound="Cc1nc(N)sc1CCCN/C(N)=N/C(=O)NCC(c1ccccc1)C(C)C (stereo unspecified)" experimental_result=5.89
compound="Cc1nc(N)sc1CCCN/C(N)=N/C(=O)NC(C)c1cccc(F)c1 (stereo unspecified)" experimental_result=7.76

1 = Cc1nc(N)sc1CCCN/C(N)=N/C(=O)NC[C@@H](C)c1ccccc1
2 = COc1ccc(C(C)NC(=O)/N=C(\N)NCCCc2sc(N)nc2C)cc1 (stereo unspecified)
3 = Cc1nc(N)sc1CCCN/C(N)=N/C(=O)NC(C)c1ccco1 (stereo unspecified)
4 = Cc1nc(N)sc1CCCN/C(N)=N/C(=O)NCC(C)C1CCCCC1 (stereo unspecified)
Let's sort these by Ki, smallest first. Go ahead? Form entry: ranked labels (order as requested). 4, 2, 1, 3

* * *

# ASSAY_NAME: Dissociation constant, pKa of compound in aqueous solution in presence of EtOH by spectrometric method
# CONDITION_PARAMETERS: aqueous solution with EtOH
READOUT_NAME: pKa
Lab note: write the figure by itself, no unit.

Report pKa for Cc1nc(N)sc1C please. 6.29

* * *

# TESTED_TARGET: Histamine H4 receptor (Homo sapiens, UniProt Q9H3N8)
READOUT_NAME: Ki (µM)

compound="Cc1nc(N)sc1CCCN/C(N)=N/C(=O)NCC(c1ccccc1)C(C)C (stereo not given)" result_units=µM experimental_result=5.89
compound=Cc1nc(N)sc1CCCN/C(N)=N/C(=O)NCC(c1ccccc1)c1ccccc1 result_units=µM experimental_result=4.9

1 = Cc1nc(N)sc1CCCN/C(N)=N/C(=O)NCc1ccco1
2 = Cc1nc(N)sc1CCCN/C(N)=N/C(=S)NC[C@H](C)c1ccccc1
3 = Cc1nc(N)sc1CCCN/C(N)=N/C(=S)NCC(c1ccccc1)c1ccccc1
Let's sort these by Ki, smallest first. Go ahead? Form entry: ranked labels (order as requested). 3, 2, 1
(3: 21.4 µM, 2: 44.7 µM, 1: 75.9 µM)

* * *

# TESTED_TARGET: UniProtKB P35462
# Sequence (P35462 whole entry): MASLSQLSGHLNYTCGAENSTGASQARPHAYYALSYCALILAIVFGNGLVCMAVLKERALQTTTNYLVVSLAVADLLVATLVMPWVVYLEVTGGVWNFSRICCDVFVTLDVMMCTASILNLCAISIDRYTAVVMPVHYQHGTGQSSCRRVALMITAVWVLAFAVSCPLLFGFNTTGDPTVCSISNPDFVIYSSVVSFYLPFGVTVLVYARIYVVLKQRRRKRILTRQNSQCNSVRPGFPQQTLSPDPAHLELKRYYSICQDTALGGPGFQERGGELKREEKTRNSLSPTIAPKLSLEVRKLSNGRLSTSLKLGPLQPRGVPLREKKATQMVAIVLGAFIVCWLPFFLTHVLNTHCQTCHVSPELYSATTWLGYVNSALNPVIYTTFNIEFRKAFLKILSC
# ASSAY_NAME: Agonist activity at […] expressed in HEK293T cells co-expressing ELucC by beta arrestin2 recruitment assay
pEC50: −log10 of the molar value.
READOUT_NAME: pEC50

Field: example entries. Status: answers known.
molecule="Cc1nc(N)sc1CCCN/C(N)=N/C(=O)NC(C)c1cccc(F)c1 (stereo unspecified)" experimental_result=7.14
molecule="Cc1nc(N)sc1CCCN/C(N)=N/C(=O)NC(C)c1ccco1 (stereo unspecified)" experimental_result=6.99
molecule=Cc1nc(N)sc1CCCN/C(N)=N/C(=O)NCc1ccccc1 experimental_result=7.47
molecule=Cc1nc(N)sc1CCCN/C(N)=N/C(=O)N[C@H](C)c1ccccc1 experimental_result=7.81
molecule="CCC(CNC(=O)/N=C(\\N)NCCCc1sc(N)nc1C)c1ccccc1 (stereo unspecified)" experimental_result=7.39
molecule=Cc1nc(N)sc1CCCN/C(N)=N/C(=S)N[C@H](C)c1ccccc1 experimental_result=6.78

1 = Cc1nc(N)sc1CCCN/C(N)=N/C(=O)NCC(C)CC1CCCCC1 (stereo unspecified)
2 = Cc1nc(N)sc1CCCN/C(N)=N/C(=O)NCC(C)CCc1ccccc1 (stereo unspecified)
Lab note: record which item had the higher pEC50, 1 or 2 . Answer by stating the label of the chosen item. 1

A = Cc1nc(N)sc1CCCN/C(N)=N/C(=O)NCC(C)C1CCCCC1 (stereo unspecified)
B = CCCCCCNC(=O)/N=C(\N)NCCCc1sc(N)nc1C
Just tell me: smaller pEC50 value, A or B ? Answer by stating the label of the chosen item. A
(A: 6.58, B: 7.63)

* * *

Measured pKi on UniProt P25021 follows.
pKi: −log10 of the molar value.
READOUT_NAME: pKi

Field: example entries. Status: answers known.
molecule=CCCNC(=O)/N=C(\N)NCCCc1sc(N)nc1C tested_target="UniProt P25021" experimental_result=6.98
molecule="Cc1nc(N)sc1CCCN/C(N)=N/C(=O)NCC(C)CC1CCCCC1 (centres undefined)" tested_target="UniProt P25021" experimental_result=7.15
molecule="CCC(CNC(=O)/N=C(\\N)NCCCc1sc(N)nc1C)c1ccccc1 (centres undefined)" tested_target="UniProt P25021" experimental_result=7.11

I = Cc1nc(N)sc1CCCN/C(N)=N/C(=O)Nc1ccccc1
II = CCCCCNC(=O)/N=C(\N)NCCCc1sc(N)nc1C
III = Cc1nc(N)sc1CCCN/C(N)=N/C(=O)NC[C@@H](C)c1ccccc1
IV = Cc1nc(N)sc1CCCN/C(N)=N/C(=O)NC(C)c1ccco1 (centres undefined)
Let's sort these by pKi, smallest first. Go ahead? Form entry: ranked labels (order as requested). I, III, IV, II

* * *

# TESTED_TARGET: Histamine H2 receptor (Homo sapiens)
# Sequence (P25021 whole entry): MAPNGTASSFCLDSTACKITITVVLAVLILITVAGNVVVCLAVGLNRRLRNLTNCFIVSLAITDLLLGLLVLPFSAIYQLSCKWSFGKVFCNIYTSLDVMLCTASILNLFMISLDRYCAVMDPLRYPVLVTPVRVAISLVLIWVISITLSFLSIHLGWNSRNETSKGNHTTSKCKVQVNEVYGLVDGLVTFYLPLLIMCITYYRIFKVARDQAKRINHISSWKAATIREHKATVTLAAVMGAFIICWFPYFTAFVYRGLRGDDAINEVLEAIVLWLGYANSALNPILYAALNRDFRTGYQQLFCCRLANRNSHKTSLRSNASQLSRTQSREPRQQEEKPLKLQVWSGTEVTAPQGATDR
# ASSAY_NAME: Agonist activity at human histamine H2 receptor expressed in sf9 insect cell membranes co-exprssing GsalphaS assessed as intrinsic activity at >=30 uM incubated for 90 mins [35S]GTPgammaS binding based microbeta scintillation counting analysis relative to histamine
# Type: functional
# CONDITION_PARAMETERS: Membrane, filed as agonist, dose microM >=30, time 90.0 min
READOUT_NAME: Intrinsic activity

Field: example entries. Status: answers known.
compound=Cc1nc(N)sc1CCCN/C(N)=N/C(=O)NCc1ccccc1 tested_target="Histamine H2 receptor (Homo sapiens)" readout_name="Intrinsic activity" experimental_result=0.91
compound=CCCCCCNC(=O)/N=C(\N)NCCCc1sc(N)nc1C tested_target="Histamine H2 receptor (Homo sapiens)" readout_name="Intrinsic activity" experimental_result=0.6
compound=Cc1nc(N)sc1CCCN/C(N)=N/C(=O)NCCc1ccccc1 tested_target="Histamine H2 receptor (Homo sapiens)" readout_name="Intrinsic activity" experimental_result=0.72

I = Cc1nc(N)sc1CCCN/C(N)=N/C(=O)NCC(c1ccccc1)C(C)C (stereo unspecified)
II = CCCCCCNC(=O)/N=C(\N)NC1CCc2nc(N)sc2C1 (stereo unspecified)
Lab note: record which item had the higher Intrinsic activity, I or II . Answer by stating the label of the chosen item. I

* * *

pEC50: −log10 of the molar value.
Measured pEC50 on D(2) dopamine receptor (Homo sapiens) follows.
Sequence (P14416 whole entry): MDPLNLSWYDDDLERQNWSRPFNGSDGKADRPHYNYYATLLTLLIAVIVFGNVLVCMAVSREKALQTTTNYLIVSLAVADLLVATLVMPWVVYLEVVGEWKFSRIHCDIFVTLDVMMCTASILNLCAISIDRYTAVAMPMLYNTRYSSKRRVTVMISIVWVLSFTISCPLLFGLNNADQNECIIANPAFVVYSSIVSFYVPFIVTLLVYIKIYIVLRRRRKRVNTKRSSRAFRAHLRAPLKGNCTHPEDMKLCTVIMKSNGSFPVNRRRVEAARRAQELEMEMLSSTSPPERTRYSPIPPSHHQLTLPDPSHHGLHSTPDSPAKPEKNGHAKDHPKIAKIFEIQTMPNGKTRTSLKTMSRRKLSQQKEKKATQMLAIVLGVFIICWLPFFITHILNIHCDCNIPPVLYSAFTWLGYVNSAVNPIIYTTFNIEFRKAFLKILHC
READOUT_NAME: pEC50

compound=CCCCCCNC(=O)/N=C(\N)NCCCc1sc(N)nc1C experimental_result=5.76
compound="Cc1nc(N)sc1CCCN/C(N)=N/C(=O)NC(C)c1ccco1 (configuration not stated)" experimental_result=5.97
compound=Cc1nc(N)sc1CCCN/C(N)=N/C(=O)NCc1ccccc1 experimental_result=5.78
compound="Cc1nc(N)sc1CCCN/C(N)=N/C(=O)NCC(C)C1CCCCC1 (configuration not stated)" experimental_result=5.49
compound=Cc1nc(N)sc1CCCN/C(N)=N/C(=S)N[C@H](C)c1ccccc1 experimental_result=5.82

P = CCCCCNC(=O)/N=C(\N)NCCCc1sc(N)nc1C
Q = Cc1nc(N)sc1CCCN/C(N)=N/C(=O)NCC(C)CCc1ccccc1 (configuration not stated)
Just tell me: smaller pEC50 value, P or Q ? Answer by stating the label of the chosen item. Q
(Q: 5.27, P: 5.98)

* * *

# TESTED_TARGET: UniProt:P25021
# ASSAY_NAME: Agonist activity at human histamine receptor expressed in sf9 insect cell membranes co-exprssing GsalphaS incubated for 90 mins [35S]GTPgammaS binding based microbeta scintillation counting analysis
# Assay type: functional, Membrane
READOUT_NAME: EC50 (nM)

compound=Cc1nc(N)sc1CCCN/C(N)=N/C(=O)NCc1ccccc1 readout_name=EC50 experimental_result=28.8

P = CCC(CNC(=O)/N=C(\N)NCCCc1sc(N)nc1C)c1ccccc1 (stereo not given)
Q = CCCCCCNC(=O)/N=C(\N)NC1CCc2nc(N)sc2C1 (stereo not given)
Just tell me: smaller EC50 value, P or Q ? Answer by stating the label of the chosen item. P

* * *

# TESTED_TARGET: Histamine H2 receptor (Cavia porcellus)
# ASSAY_NAME: Agonist activity at guinea pig right atrium histamine H2 receptor assessed as intrinsic activity incubated for 30 mins in presence of cimetidine relative to histamine
# Assay type: functional, tissue-based
# CONDITION_PARAMETERS: Right cardiac atrium, filed as agonist
READOUT_NAME: Intrinsic activity

compound=Cc1nc(N)sc1CCCN/C(N)=N/C(=O)NCC(c1ccccc1)c1ccccc1 readout_name="Intrinsic activity" experimental_result=0.76
compound=Cc1nc(N)sc1CCCN/C(N)=N/C(=S)NC(c1ccccc1)c1ccccc1 readout_name="Intrinsic activity" experimental_result=0.67
compound="Cc1ccc(C(C)NC(=O)/N=C(\\N)NCCCc2sc(N)nc2C)cc1 (stereo not given)" readout_name="Intrinsic activity" experimental_result=0.85
compound="Cc1nc(N)sc1CCCN/C(N)=N/C(=O)NC(C)c1ccccc1F (stereo not given)" readout_name="Intrinsic activity" experimental_result=0.93
compound="Cc1nc(N)sc1CCCN/C(N)=N/C(=O)NC(C)c1ccc(Br)cc1 (stereo not given)" readout_name="Intrinsic activity" experimental_result=0.87
